Data origin: patent US20240409648A1

Overview of reported IC90 pNFκB, trun-IL-36a, BaF/3 cynomolgus IL-36R cells across a group of binders:
target or system: cynomolgus IL-36R on BaF/3 cells (cynomolgus)
method: cell-based or functional assay

binder	result
Mouse 81B4 (antibody 81B4) (antibody, V domains shown) VH: QVQLQQPGADFVRPGASMRLSCKASGYSFTSSWIHWVKQRPGQGLEWIGEINPGNVRTNYNENFRNKATLTVDKSSTTAYMQLRSLTSADSAVYYCTVVFYGEPYFPYWGQGTLVTVSA VL: QIVLTQSPAIMSASLGERVTMTCTASSSVSSSYFHWYQQKPGSSPKLWIYRTSNLASGVPGRFSGSGSGTSYSLTISSMEAEDAATYYCHQFHRSPLTFGAGTKLELK	2.4 nM
antibody 76E10 (antibody, V domains shown) VH: QVQLKESGPVLVAPSQSLSITCTVSGFSLTNYGVHWVRQPPGKGLEWLGVIWPVGSTNYNSALMSRLSIHKDNSKSQVFLRMNSLQTDDTAIYYCAKMDWDDFFDYWGQGTTLTVSS VL: DIVMTQSQKFMSATVGGRVNITCKASQNVGRAVAWYQQKPGQSPKLLTHSASNRYTGVPDRFTGSGSGTDFTLTITNMQSEDLADYFCQQYSSYPLTFGAGTKLDLK	> 4 µM

Proceed to the following item.
Briefly, IC90 pNFκB, trun-IL-36a, BaF/3 cynomolgus IL-36R cells measured for antibody 67E7 (antibody, V domains shown) VH: EVQLQQSGAEFVRPGASVKFSCTASGFNIKDDYIHWVRQRPEQGLEWVGRIDPANGNTKYAPKFQDKATITADTSSNTAYLQLSSLTSEDTAVYYCAKSFPNNYYSYDDAFAYWGQGTLVTVSA VL: DIQMTQSPASQSASLGESVTFTCLASQTIGTWLGWYQQKPGKSPQLLIYRSTTLADGVPSRFSGSGSGTKFSFKISSLQAADFASYYCQQLYSAPYTFGGGTKLEIR : > 4 µM
